Cited source for all entries: patent US20200339625A1

Tested on: mice bearing PSMA-expressing LNCAP cancer xenografts
procedureText: Biodistribution of 68Ga-labeled compounds
Format: in vivo
runConditions: 1 h post-injection
Method: Imaging and biodistribution experiments were performed using NODSCID 1L2RyKO male mice. Mice were anesthetized by inhalation with 2% isoflurane in oxygen, and implanted subcutaneously with 1×10^7 LNCaP cells behind left shoulder. […] For biodistribution studies, the mice were injected with the radiotracer as described above. […] The collected organs/tissues were weighed and counted using an automatic gamma counter. […]
valueKind: Tail uptake (% ID/g)

The measured Tail uptake associated with Cc1ccc(CCCC(=O)NCC(=O)N[C@@H](CCCCNC(=O)CN2CCN(CC(=O)[O-])CCN(CC(=O)[O-])CCN(CC(=O)[O-])CC2)C(=O)NC[C@H]2CC[C@H](C(=O)N[C@@H](Cc3ccc4ccccc4c3)C(=O)NCCCC[C@H](NC(=O)N[C@@H](CCC(=O)O)C(=O)O)C(=O)O)CC2)cc1.[68Ga+3] [^68Ga-HTK03090] reads 3.77

The measured Tail uptake associated with O=C([O-])CN1CCN(CC(=O)[O-])CCN(CC(=O)NCC2CCC(C(=O)NC(Cc3ccc4cc5ccccc5cc4c3)C(=O)NCCCCC(NC(=O)NC(CCC(=O)O)C(=O)O)C(=O)O)CC2)CCN(CC(=O)[O-])CC1.[68Ga+3] (stereo not shown) [^68Ga-HTK03027] reads 0.98

The measured Tail uptake associated with O=C([O-])CN1CCN(CC(=O)[O-])CCN(CC(=O)NCCCC[C@H](NC(=O)CNC(=O)CCCc2ccc(F)cc2)C(=O)NC[C@H]2CC[C@H](C(=O)N[C@@H](Cc3ccc4ccccc4c3)C(=O)NCCCC[C@H](NC(=O)N[C@@H](CCC(=O)O)C(=O)O)C(=O)O)CC2)CCN(CC(=O)[O-])CC1.[68Ga+3] [^68Ga-HTK03085] reads 1.79

The measured Tail uptake associated with COc1ccc(CCCC(=O)NCC(=O)N[C@@H](CCCCNC(=O)CN2CCN(CC(=O)[O-])CCN(CC(=O)[O-])CCN(CC(=O)[O-])CC2)C(=O)NC[C@H]2CC[C@H](C(=O)N[C@@H](Cc3ccc4ccccc4c3)C(=O)NCCCC[C@H](NC(=O)N[C@@H](CCC(=O)O)C(=O)O)C(=O)O)CC2)cc1.[68Ga+3] [^68Ga-HTK03086] reads 3.39

The measured Tail uptake associated with O=C([O-])CN1CCN(CC(=O)[O-])CCN(CC(=O)NCC2CCC(C(=O)NC(Cc3c4ccccc4cc4ccccc34)C(=O)NCCCCC(NC(=O)NC(CCC(=O)O)C(=O)O)C(=O)O)CC2)CCN(CC(=O)[O-])CC1.[68Ga+3] (stereo not shown) [^68Ga-HTK03041] reads 1.36

The measured Tail uptake associated with O=C([O-])CN1CCN(CC(=O)[O-])CCN(CC(=O)NCCCC[C@H](NC(=O)CNC(=O)CCCc2ccc([N+](=O)[O-])cc2)C(=O)NC[C@H]2CC[C@H](C(=O)N[C@@H](Cc3ccc4ccccc4c3)C(=O)NCCCC[C@H](NC(=O)N[C@@H](CCC(=O)O)C(=O)O)C(=O)O)CC2)CCN(CC(=O)[O-])CC1.[68Ga+3] [^68Ga-HTK03089] reads 2.54

The measured Tail uptake associated with O=C([O-])CN1CCN(CC(=O)[O-])CCN(CC(=O)NCCCC[C@H](NC(=O)CNC(=O)CCCc2ccc(I)cc2)C(=O)NC[C@H]2CC[C@H](C(=O)N[C@@H](Cc3ccc4ccccc4c3)C(=O)NCCCC[C@H](NC(=O)N[C@@H](CCC(=O)O)C(=O)O)C(=O)O)CC2)CCN(CC(=O)[O-])CC1.[68Ga+3] [^68Ga-HTK03024] reads 7.58
